molecular target: LFA-1 (Homo sapiens, UniProt P05107+P20701); construct: The Jurkat (VCAM-1 assays) and HSB (ICAM-1 assays) cell lines were obtained from American Type Culture Collection; endogenous in cells; host or cells: HSB cells (ATCC); test: Static cell adhesion assay, HSB cells on ICAM-1 (αLβ2/ICAM-1; LFA-1); type: cell-based; settings: Dose 3 μM, compound and THI0349 at the same concentration; ratio >1 = more potent agonist
Sequence (P20701 26-1170): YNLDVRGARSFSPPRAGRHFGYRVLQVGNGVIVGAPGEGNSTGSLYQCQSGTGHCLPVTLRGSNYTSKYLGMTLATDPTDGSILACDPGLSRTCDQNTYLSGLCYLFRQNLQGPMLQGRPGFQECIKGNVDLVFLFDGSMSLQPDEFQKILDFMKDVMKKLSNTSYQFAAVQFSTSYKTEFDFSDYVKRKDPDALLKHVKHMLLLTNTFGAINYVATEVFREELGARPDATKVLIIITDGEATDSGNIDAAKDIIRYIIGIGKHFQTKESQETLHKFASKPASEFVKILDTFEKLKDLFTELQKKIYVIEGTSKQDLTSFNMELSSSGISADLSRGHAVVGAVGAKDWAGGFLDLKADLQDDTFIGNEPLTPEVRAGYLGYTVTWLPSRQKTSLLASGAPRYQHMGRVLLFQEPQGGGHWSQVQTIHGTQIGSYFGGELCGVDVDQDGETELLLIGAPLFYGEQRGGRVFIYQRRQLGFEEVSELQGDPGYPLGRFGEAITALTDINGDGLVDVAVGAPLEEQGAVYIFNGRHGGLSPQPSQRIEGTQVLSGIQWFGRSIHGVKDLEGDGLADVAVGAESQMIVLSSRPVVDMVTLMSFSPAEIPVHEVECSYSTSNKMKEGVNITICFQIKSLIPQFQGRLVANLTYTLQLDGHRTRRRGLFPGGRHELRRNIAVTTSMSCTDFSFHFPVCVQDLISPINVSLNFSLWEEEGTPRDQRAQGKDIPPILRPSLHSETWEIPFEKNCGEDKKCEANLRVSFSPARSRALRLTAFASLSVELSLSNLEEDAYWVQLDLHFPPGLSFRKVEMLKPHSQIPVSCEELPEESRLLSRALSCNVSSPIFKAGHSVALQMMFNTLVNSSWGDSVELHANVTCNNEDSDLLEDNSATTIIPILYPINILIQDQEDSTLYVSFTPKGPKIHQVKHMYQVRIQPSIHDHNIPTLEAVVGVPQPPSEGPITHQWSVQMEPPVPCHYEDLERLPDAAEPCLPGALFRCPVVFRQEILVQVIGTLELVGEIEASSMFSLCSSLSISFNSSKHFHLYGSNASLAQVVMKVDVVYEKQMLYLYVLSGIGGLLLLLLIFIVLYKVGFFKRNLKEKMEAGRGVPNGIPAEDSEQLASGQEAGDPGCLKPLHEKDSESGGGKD
Sequence (P05107 23-769): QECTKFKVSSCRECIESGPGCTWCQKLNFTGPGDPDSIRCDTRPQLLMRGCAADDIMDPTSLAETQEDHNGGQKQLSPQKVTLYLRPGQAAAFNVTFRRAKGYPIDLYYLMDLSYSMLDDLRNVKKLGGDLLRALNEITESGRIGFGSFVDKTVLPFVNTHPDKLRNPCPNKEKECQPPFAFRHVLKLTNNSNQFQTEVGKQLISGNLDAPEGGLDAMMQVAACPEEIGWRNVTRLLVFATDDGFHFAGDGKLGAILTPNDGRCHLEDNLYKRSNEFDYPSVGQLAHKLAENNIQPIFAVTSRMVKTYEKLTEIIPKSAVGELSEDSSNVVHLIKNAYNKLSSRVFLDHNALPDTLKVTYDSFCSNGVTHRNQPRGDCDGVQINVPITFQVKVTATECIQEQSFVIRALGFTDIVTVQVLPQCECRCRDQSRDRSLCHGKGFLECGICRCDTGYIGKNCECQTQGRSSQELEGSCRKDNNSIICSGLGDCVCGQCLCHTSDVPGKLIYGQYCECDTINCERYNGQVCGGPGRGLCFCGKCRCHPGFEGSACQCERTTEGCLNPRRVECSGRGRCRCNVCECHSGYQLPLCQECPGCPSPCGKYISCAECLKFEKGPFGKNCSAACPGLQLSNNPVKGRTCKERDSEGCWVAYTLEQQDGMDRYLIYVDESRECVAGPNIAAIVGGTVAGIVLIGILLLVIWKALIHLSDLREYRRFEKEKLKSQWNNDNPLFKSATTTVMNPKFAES
Readout Label: LAD Raw Fluorescence Units against LFA-1; Ratio of raw counts Compound/THI0349 (fold response)
Answers are plain numbers, in fold response.

Worked cases, LAD Raw Fluorescence Units against LFA-1; Ratio of raw counts Compound/THI0349 given:
> print(dat)
                            chemical.smiles                         target.under.test  observed.measurement
1  O=C(CN1CCN(CC(=O)N(Cc2cccs2)Cc2cccs2)CC1)N(Cc1cccs1)Cc1cccs1  LFA-1 (Homo sapiens, UniProt P05107+P20701)                   0.4
2  COc1ccc(CN(CC(C)C)C(=O)CN2CCN(CC(=O)N(Cc3ccc(OC)cc3)CC(C)C)CC2)cc1  LFA-1 (Homo sapiens, UniProt P05107+P20701)                   0.9
3  O=C(CN1CCN(C(=O)OCc2ccccc2)CC1)N(Cc1ccc(O)cc1)Cc1ccc(O)cc1  LFA-1 (Homo sapiens, UniProt P05107+P20701)                   0.3
4  COc1ccc(CN(Cc2ccc(OC)cc2)C(=O)CN2CCN(C(=O)Cc3cccc(OC)c3)CC2=O)cc1  LFA-1 (Homo sapiens, UniProt P05107+P20701)                   0.5
5  COc1ccc(CN(Cc2ccc(OC)cc2)C(=O)CN2CCN(C(=O)c3cccc(OC)c3)CC2=O)cc1  LFA-1 (Homo sapiens, UniProt P05107+P20701)                   0.6

With those in mind, consider the next molecule.
Consider the molecule `O=C(CCCCN1CCN(C(=O)OCc2ccccc2)CC1)N(Cc1cccs1)Cc1cccs1` and give its measured LAD Raw Fluorescence Units against LFA-1; Ratio of raw counts Compound/THI0349.
0.9

* * *

biological target: LFA-1 (Homo sapiens, UniProt P05107+P20701); construct: The Jurkat (VCAM-1 assays) and HSB (ICAM-1 assays) cell lines were obtained from American Type Culture Collection; endogenous in cells; host or cells: HSB cells (ATCC); assay: Static cell adhesion assay, HSB cells on ICAM-1 (αLβ2/ICAM-1; LFA-1); format: cell-based; conditions: Dose 3 μM, compound and THI0349 at the same concentration; ratio >1 = more potent agonist
Threshold-based label: LAD Raw Fluorescence Units against LFA-1; Ratio of raw counts Compound/THI0349 under 5 fold increased response gives true, LAD Raw Fluorescence Units against LFA-1; Ratio of raw counts Compound/THI0349 not under 5 fold increased response gives false.

> print(dat)
                            chemical.smiles  class.label
1  COc1ccc(CN(Cc2ccc(OC)cc2)C(=O)CN2CCN(CC(=O)N(Cc3ccc(OC)cc3)Cc3ccc(OC)cc3)C(=O)C2)cc1        false

Regarding `COc1cccc(CN(Cc2cccc(OC)c2)C(=O)OCCN2CCN(CCOC(=O)N(Cc3cccc(OC)c3)Cc3cccc(OC)c3)CC2)c1` , kindly confirm whether its LAD Raw Fluorescence Units against LFA-1; Ratio of raw counts Compound/THI0349 is beneath 5 fold increased response.
true

I wonder whether `COc1cccc(CN(Cc2cccc(OC)c2)C(=O)OCCN2CC(=O)N(CCOC(=O)N(Cc3cccc(OC)c3)Cc3cccc(OC)c3)CC2=O)c1` has LAD Raw Fluorescence Units against LFA-1; Ratio of raw counts Compound/THI0349 below 5 fold increased response. Can you tell?
true

For this molecule, is LAD Raw Fluorescence Units against LFA-1; Ratio of raw counts Compound/THI0349 lower than 5 fold increased response? `COc1ccc(CN(Cc2ccc(N(C)C)cc2)C(=O)OCCN2CC(=O)N(CCOC(=O)N(Cc3ccc(OC)cc3)Cc3ccc(N(C)C)cc3)CC2=O)cc1`
false

In plain terms, does `O=C1CN(CCOC(=O)N(Cc2cccs2)Cc2cccs2)C(=O)CN1CCOC(=O)N(Cc1cccs1)Cc1cccs1` come in under 5 fold increased response for LAD Raw Fluorescence Units against LFA-1; Ratio of raw counts Compound/THI0349?
true
